# assayExplanation: NCI Yeast Anticancer Drug Screen. Data for the sgs1 mgt1 strain (AID 161);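 also: 0% = growth of cultures given vehicle only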
# experimentalContext: S. cerevisiae sgs1 mgt1 strain, at 50.0 µM, hits give high values
Compounds without any hit were thinned out: in the full panel of roughly 79,000, 15% have a hit.
I'd appreciate it if you could supply growth inhibition values for the items below.
Write it as a number; the unit % goes unstated.

// query Query (compound): CCOC(=O)c1c(C)c2c(n1C)CC/C(=C/NCCc1ccccc1)C2=O ; field requested: growth inhibition
// result 86.4

// query Consider the compound Cc1ccc(S(=O)(=O)OCCOCCOc2ccc(C(C)(C)CC(C)(C)C)cc2)cc1 and give its measured growth inhibition.
// result 34

// query Given the compound Cc1ccc(NC(=O)Oc2ccccn2)cc1 , what is its reported growth inhibition?
// result -8.05

// query Item under review: Cc1cc(C)c(/C=C\C(=O)c2ccccc2)c(C)c1 . Reported growth inhibition?
// result -4.3

// query So what's the measured growth inhibition for this one? CC(=O)Nc1ccc(/C=N\N=C\c2ccc(NC(C)=O)cc2)cc1
// result 28.4

// query Which growth inhibition reading was recorded for the compound CC12CC(O)C(C=C1c1ccccc1)C2(C)C (configuration not stated) ?
// result 0.85

// query Please report the recorded growth inhibition for C1COCCN1.C1COCCN1.N.N.[Cl-].[Pt+2] .
// result -38.1

// query Bench note: what growth inhibition did CCc1cc(C)cc(CC)c1N show?
// result -8.55

// query Requested field: growth inhibition. Item: O=[n+]1c2c(n([O-])c3cc(Cl)c(Cl)cc31)CCC2
// result 22.9

// query Recorded growth inhibition of O=c1[nH]c(=O)n(C2CC(O)C(CO)O2)cc1C#Cc1ccc(C(F)(F)F)cc1 (configuration not stated) , please.
// result 5

// query # input compound: Cc1nc2ccccc2c(=O)n1C ; wanted: its growth inhibition
// result 10.7

// query # growth inhibition lookup, item CCCCCCCOC(C)=O
// result 11.3

Recorded values, source PubChem BioAssay (NCI).
